Target: AAD-12 (Delftia acidovorans, UniProt P83309)
Construct: made in house; host or cells: E. coli BL21(DE3)
Sequence (P83309 2-292, added parts left off): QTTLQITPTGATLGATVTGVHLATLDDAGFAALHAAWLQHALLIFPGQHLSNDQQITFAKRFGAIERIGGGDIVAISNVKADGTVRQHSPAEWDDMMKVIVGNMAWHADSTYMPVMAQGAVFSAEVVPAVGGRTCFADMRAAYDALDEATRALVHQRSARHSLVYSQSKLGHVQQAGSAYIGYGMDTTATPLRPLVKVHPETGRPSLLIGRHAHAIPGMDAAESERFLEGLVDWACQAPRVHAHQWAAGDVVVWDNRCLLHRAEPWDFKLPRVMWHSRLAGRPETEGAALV
Test: Degradation activities of AAD-12 on phenoxy acetic acid herbicides by spectrophotometry (A510)
Assay type: biochemical, Comamonas acidovorans
Details: AAD-12 enzyme with substrate, chromogenic detection at 510 nm
measured-endpoint: A510 of reaction group, Reaction 1

# input Reported A510 of reaction group, Reaction 1 for O=C(O)COc1ccc(Cl)cc1Cl [2,4-D, (2,4-dichlorophenoxy)acetic acid, reference compound] : what is it?
# output 0.2865

---

Biological target: AAD-12 (Delftia acidovorans, UniProt P83309)
Construct: made in house; host or cells: E. coli BL21(DE3)
Assay: Degradation activities of AAD-12 on phenoxy acetic acid herbicides by spectrophotometry (A510)
Assay type: biochemical, Comamonas acidovorans
Conditions: reaction group versus blank group
measured-endpoint: Increased A510

Reference set (3 entries):
>>> result("CC(C)CCCCCOC(=O)COc1ccc(Cl)cc1Cl")
"+0.019"
>>> result("O=C(O)COc1ccc(Cl)cc1Cl [2,4-D, (2,4-dichlorophenoxy)acetic acid, reference compound]")
"+0.130"
>>> result("Cc1cc(Cl)ccc1OCC(=O)O")
"+0.035"

Would you kindly look at the next entry?
# input Reported Increased A510 for O=C(O)CCCOc1ccc(Cl)cc1Cl : what is it?
# output +0.017

---

Molecular target: AAD-12 (Delftia acidovorans, UniProt P83309)
Construct: made in house; host or cells: E. coli BL21(DE3)
Experiment: Degradation activities of AAD-12 on phenoxy acetic acid herbicides by spectrophotometry (A510)
Format: biochemical, Comamonas acidovorans
Conditions: AAD-12 enzyme with substrate, chromogenic detection at 510 nm
measured-endpoint: A510 of reaction group, Reaction 1

>>> result("Cc1cc(Cl)ccc1OCC(=O)O")
0.1998
>>> result("O=C(O)CCCOc1ccc(Cl)cc1Cl")
0.1373

# input Fill in the recorded A510 of reaction group, Reaction 1 for this compound, with AAD-12 (Delftia acidovorans, UniProt P83309) as test system: CC(C)CCCCCOC(=O)COc1ccc(Cl)cc1Cl
# output 0.1570
